target: LdcCA (Leishmania infantum, UniProt A4HSV2); construct: gene LINJ_06_0630; organism given as Leishmania donovani chagasi; test: stopped-flow CO2 hydrase assay; format: biochemical; conditions: 20 mM TRIS pH 8.3, 20 mM Na2SO4, CO2 1.7-17 mM, 15 min preincubation at room temperature
Sequence (A4HSV2 1-306): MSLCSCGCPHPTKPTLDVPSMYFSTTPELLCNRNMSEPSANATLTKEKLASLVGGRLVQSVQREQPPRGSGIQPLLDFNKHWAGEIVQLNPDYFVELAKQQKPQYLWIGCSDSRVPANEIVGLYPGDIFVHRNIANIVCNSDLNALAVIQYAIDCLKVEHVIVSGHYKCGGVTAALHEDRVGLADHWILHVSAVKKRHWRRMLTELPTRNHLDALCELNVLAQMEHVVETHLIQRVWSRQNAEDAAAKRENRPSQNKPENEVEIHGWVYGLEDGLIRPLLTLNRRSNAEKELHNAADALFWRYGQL
Hi there, I'd appreciate the recorded Ki for every entry that follows.
One number for each entry, in µM.

Please review the following examples before continuing.
{"lineNotation": "OB1OCc2ccc(NC(=S)NCCc3ccccc3)cc21", "systemName": "LdcCA (Leishmania infantum, UniProt A4HSV2)", "obsValue": 3.2}
{"lineNotation": "OB1OCc2ccc(NC(=S)Nc3ccccc3)cc21", "systemName": "LdcCA (Leishmania infantum, UniProt A4HSV2)", "obsValue": 0.65}
{"lineNotation": "O=[N+]([O-])c1ccc(NC(=S)Nc2ccc3c(c2)B(O)OC3)cc1", "systemName": "LdcCA (Leishmania infantum, UniProt A4HSV2)", "obsValue": 0.91}

Lookup: Any idea what Ki was measured for Nc1ccc2c(c1)B(O)OC2 ?
Found: 2.37
